The origin of these recorded values is PubChem BioAssay (NCI).

Test system: UACC-62 melanoma
testDetails: NCI-60 one-dose screen, 48 h (100 = growth as untreated, 0 = no growth, -100 = all killed)
studyConditions: 10 µM unless noted
The panel holds about 83,000 compounds, 20% with a hit somewhere; the sample as a whole holds those more often.
parameter: growth (%)
Respond numerically; units are % and should not be typed.

These solved cases illustrate the format of a correct answer.
>  <compound>
CCOC(=O)C1=C(C)NC(C)=C(C(=O)OCc2ccccc2)C1c1cccc(C#N)c1 (stereo not given)

>  <growth, %>
33.4

$$$$
>  <compound>
NC1C2CCC1CN(c1cnc(C(=O)Nc3cc(F)cc4cccnc34)cn1)C2 (stereo not given)

>  <growth, %>
78.9

$$$$
>  <compound>
Cc1ccc(C(=O)CSc2nnc(-c3ccc(-c4ccc(Cl)cc4)nc3C)o2)cc1

>  <growth, %>
84.8

$$$$

Prompt: Returns the measured growth for the input compound. Input: O=C(CCCCCCN1CC(=O)N2[C@@H](C3CC3)c3[nH]c4ccccc4c3C[C@H]2C1=O)NO
Completion: 31.8

Prompt: Returns the measured growth for the input compound. Input: O=C1C(SCc2ccccc2)=C(Cl)CN1c1ccc(Cl)cc1
Completion: 93.5

Prompt: Returns the measured growth for the input compound. Input: CCOC(=O)c1cccnc1Nc1ccc(NC(=O)Nc2ccc(Cl)c(C(F)(F)F)c2)cc1
Completion: 45.4
